# Tested on: T1, recombinant human Tie2 extracellular domain (human, UniProt Q02763 23-748)
# T1 construct: whole entry named; also called Recombinant human Tie2 ECD; hu Tie2
# T1 sequence (Q02763 23-748 limits assumed): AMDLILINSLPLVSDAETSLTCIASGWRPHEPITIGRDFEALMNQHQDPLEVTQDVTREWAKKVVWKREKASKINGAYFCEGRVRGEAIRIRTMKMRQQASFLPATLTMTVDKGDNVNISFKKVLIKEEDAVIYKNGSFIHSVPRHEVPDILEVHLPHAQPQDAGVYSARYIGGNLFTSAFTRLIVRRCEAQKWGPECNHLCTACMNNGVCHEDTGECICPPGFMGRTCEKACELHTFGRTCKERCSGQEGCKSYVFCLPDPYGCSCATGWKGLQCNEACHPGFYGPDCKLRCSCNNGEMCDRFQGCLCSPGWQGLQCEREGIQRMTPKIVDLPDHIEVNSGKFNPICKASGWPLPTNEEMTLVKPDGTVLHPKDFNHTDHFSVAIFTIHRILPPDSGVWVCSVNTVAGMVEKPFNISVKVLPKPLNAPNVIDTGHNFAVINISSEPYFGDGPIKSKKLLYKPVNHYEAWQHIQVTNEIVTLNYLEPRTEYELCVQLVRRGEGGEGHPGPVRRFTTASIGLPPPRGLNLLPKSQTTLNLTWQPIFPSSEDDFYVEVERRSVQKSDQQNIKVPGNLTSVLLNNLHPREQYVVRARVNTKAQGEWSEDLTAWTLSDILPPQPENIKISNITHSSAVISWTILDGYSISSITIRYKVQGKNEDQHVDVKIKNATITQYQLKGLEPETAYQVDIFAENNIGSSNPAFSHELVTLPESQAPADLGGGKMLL
# Assay info: SPR, IgG captured, 37C
Experimental readout: Normalized Binding Signal, 300 nM
Please respond with just the number, no unit label.

Exam item: Tell us which Normalized Binding Signal, 300 nM value is on record for Tie2.1.M100cG (antibody, IgG1, name in Kabat numbering, V domains shown, hIgG1) VH: EVQLVESGGGLVQPGGSLRLSCAASGFTFSNTDISWVRQAPGKGLEWVGRISPSDGNTYYADSVKGRFTISADTSKNTAYLQMNSLRAEDTAVYYCARRTRWASWAGDYWGQGTLVTVSS VL: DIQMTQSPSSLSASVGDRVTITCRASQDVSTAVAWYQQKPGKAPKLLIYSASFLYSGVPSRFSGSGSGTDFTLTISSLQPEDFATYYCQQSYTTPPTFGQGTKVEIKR
Marked response: 0.06

Exam item: Tell us which Normalized Binding Signal, 300 nM value is on record for Tie2.1.M100cH (antibody, IgG1, name in Kabat numbering, V domains shown, hIgG1) VH: EVQLVESGGGLVQPGGSLRLSCAASGFTFSNTDISWVRQAPGKGLEWVGRISPSDGNTYYADSVKGRFTISADTSKNTAYLQMNSLRAEDTAVYYCARRTRWASWAHDYWGQGTLVTVSS VL: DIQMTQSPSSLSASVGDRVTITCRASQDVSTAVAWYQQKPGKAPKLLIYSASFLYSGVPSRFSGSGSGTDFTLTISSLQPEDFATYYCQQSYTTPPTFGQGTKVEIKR
Marked response: 0.11

Exam item: Tell us which Normalized Binding Signal, 300 nM value is on record for Tie2.1.M100cL (antibody, IgG1, name in Kabat numbering, V domains shown, hIgG1) VH: EVQLVESGGGLVQPGGSLRLSCAASGFTFSNTDISWVRQAPGKGLEWVGRISPSDGNTYYADSVKGRFTISADTSKNTAYLQMNSLRAEDTAVYYCARRTRWASWALDYWGQGTLVTVSS VL: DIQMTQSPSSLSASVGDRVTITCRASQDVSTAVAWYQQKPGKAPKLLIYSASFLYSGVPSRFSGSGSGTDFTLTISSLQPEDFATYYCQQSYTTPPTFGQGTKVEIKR
Marked response: 0.12

Exam item: Tell us which Normalized Binding Signal, 300 nM value is on record for Tie2.1.M100cY (antibody, IgG1, name in Kabat numbering, V domains shown, hIgG1) VH: EVQLVESGGGLVQPGGSLRLSCAASGFTFSNTDISWVRQAPGKGLEWVGRISPSDGNTYYADSVKGRFTISADTSKNTAYLQMNSLRAEDTAVYYCARRTRWASWAYDYWGQGTLVTVSS VL: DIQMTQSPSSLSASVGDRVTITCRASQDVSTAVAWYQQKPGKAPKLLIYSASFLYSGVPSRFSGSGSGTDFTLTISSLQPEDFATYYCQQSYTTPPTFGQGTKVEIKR
Marked response: 0.15

Exam item: Tell us which Normalized Binding Signal, 300 nM value is on record for Tie2.1.M100cN (antibody, IgG1, name in Kabat numbering, V domains shown, hIgG1) VH: EVQLVESGGGLVQPGGSLRLSCAASGFTFSNTDISWVRQAPGKGLEWVGRISPSDGNTYYADSVKGRFTISADTSKNTAYLQMNSLRAEDTAVYYCARRTRWASWANDYWGQGTLVTVSS VL: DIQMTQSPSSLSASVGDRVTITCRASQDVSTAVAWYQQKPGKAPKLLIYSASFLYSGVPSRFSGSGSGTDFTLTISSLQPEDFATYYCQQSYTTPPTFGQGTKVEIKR
Marked response: 0.11
